- Procedure Details: self-splicing fitness, log relative to wild type (ln ratio); higher = more splicing; Tetrahymena group I intron in knt gene, E. coli kanamycin selection, DiMSum; sequences stand for … in CUCUCU…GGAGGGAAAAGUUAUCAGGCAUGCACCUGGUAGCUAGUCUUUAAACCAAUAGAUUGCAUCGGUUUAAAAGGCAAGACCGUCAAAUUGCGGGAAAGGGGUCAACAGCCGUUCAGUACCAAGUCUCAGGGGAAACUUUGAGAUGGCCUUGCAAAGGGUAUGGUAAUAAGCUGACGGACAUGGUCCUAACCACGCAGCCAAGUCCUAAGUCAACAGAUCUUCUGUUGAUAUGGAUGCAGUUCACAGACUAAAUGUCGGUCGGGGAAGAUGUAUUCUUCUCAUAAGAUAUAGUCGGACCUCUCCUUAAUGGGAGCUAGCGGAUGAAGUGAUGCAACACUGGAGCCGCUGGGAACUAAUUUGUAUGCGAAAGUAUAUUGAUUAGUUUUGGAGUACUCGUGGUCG;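 further: selection with 25 µg/mL kanamycin versus none on LB agar overnight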
- Settings: 30 °C
# self-splicing fitness (ln) >= -3 gives Condition met, anything below gives Condition not met

State whether the measured self-splicing fitness (ln) reaches -3, counting equality as reaching it, for AAAUAGCAAUAUUACGCCAC
Condition not met

State whether the measured self-splicing fitness (ln) reaches -3, counting equality as reaching it, for GGUCAGCAAUAUUACGUCAA
Condition met

State whether the measured self-splicing fitness (ln) reaches -3, counting equality as reaching it, for AUCUAGCAAUAUUACGUGGC
Condition met

State whether the measured self-splicing fitness (ln) reaches -3, counting equality as reaching it, for AAGGAGCAAUAUUACGCUCG
Condition met

State whether the measured self-splicing fitness (ln) reaches -3, counting equality as reaching it, for AGGAAGCAAUAUUACGCGUA
Condition met

State whether the measured self-splicing fitness (ln) reaches -3, counting equality as reaching it, for GCUAAGCAAUAUUACGAGAC
Condition met

State whether the measured self-splicing fitness (ln) reaches -3, counting equality as reaching it, for GUGGAGCAAUAUUACGCCGA
Condition not met

State whether the measured self-splicing fitness (ln) reaches -3, counting equality as reaching it, for UGUAAGCAAUAUUACGGCGG
Condition met

State whether the measured self-splicing fitness (ln) reaches -3, counting equality as reaching it, for CUUGAGCAAUAUUACGUUUC
Condition not met

State whether the measured self-splicing fitness (ln) reaches -3, counting equality as reaching it, for CGUGAGCAAUAUUACGGGCA
Condition met

State whether the measured self-splicing fitness (ln) reaches -3, counting equality as reaching it, for CCGUAGCAAUAUUACGGGCA
Condition not met

State whether the measured self-splicing fitness (ln) reaches -3, counting equality as reaching it, for UGGAAGCAAUAUUACGGACC
Condition met

State whether the measured self-splicing fitness (ln) reaches -3, counting equality as reaching it, for CCUUAGCAAUAUUACGGGCU
Condition not met

State whether the measured self-splicing fitness (ln) reaches -3, counting equality as reaching it, for CAGCAGCAAUAUUACGAGAU
Condition met

State whether the measured self-splicing fitness (ln) reaches -3, counting equality as reaching it, for UGCGAGCAAUAUUACGUGCC
Condition not met

State whether the measured self-splicing fitness (ln) reaches -3, counting equality as reaching it, for CGAUAGCAAUAUUACGUAAU
Condition met

State whether the measured self-splicing fitness (ln) reaches -3, counting equality as reaching it, for AUGAAGCAAUAUUACGCUUG
Condition met

State whether the measured self-splicing fitness (ln) reaches -3, counting equality as reaching it, for AUAGAGCAAUAUUACGUGCG
Condition met

State whether the measured self-splicing fitness (ln) reaches -3, counting equality as reaching it, for GGGGAGCAAUAUUACGUUAG
Condition not met

State whether the measured self-splicing fitness (ln) reaches -3, counting equality as reaching it, for UCACAGCAAUAUUACGACGA
Condition met

State whether the measured self-splicing fitness (ln) reaches -3, counting equality as reaching it, for GCGGAGCAAUAUUACGAUGU
Condition met

State whether the measured self-splicing fitness (ln) reaches -3, counting equality as reaching it, for AGCGAGCAAUAUUACGCUUA
Condition not met

State whether the measured self-splicing fitness (ln) reaches -3, counting equality as reaching it, for UUGGAGCAAUAUUACGCGGU
Condition met

State whether the measured self-splicing fitness (ln) reaches -3, counting equality as reaching it, for UUGAAGCAAUAUUACGCCGU
Condition met

State whether the measured self-splicing fitness (ln) reaches -3, counting equality as reaching it, for UCGGAGCAAUAUUACGAACA
Condition met

State whether the measured self-splicing fitness (ln) reaches -3, counting equality as reaching it, for CCUAAGCAAUAUUACGUCGA
Condition met

State whether the measured self-splicing fitness (ln) reaches -3, counting equality as reaching it, for GAGCAGCAAUAUUACGACCA
Condition met

State whether the measured self-splicing fitness (ln) reaches -3, counting equality as reaching it, for UUUGAGCAAUAUUACGUUUU
Condition not met

State whether the measured self-splicing fitness (ln) reaches -3, counting equality as reaching it, for GCUGAGCAAUAUUACGUAGG
Condition met

State whether the measured self-splicing fitness (ln) reaches -3, counting equality as reaching it, for AGGCAGCAAUAUUACGGGUG
Condition not met

State whether the measured self-splicing fitness (ln) reaches -3, counting equality as reaching it, for UGCAAGCAAUAUUACGCACC
Condition met

State whether the measured self-splicing fitness (ln) reaches -3, counting equality as reaching it, for GGCCAGCAAUAUUACGAUUA
Condition not met

State whether the measured self-splicing fitness (ln) reaches -3, counting equality as reaching it, for AACAAGCAAUAUUACGGAGU
Condition met

###

- Procedure Details: self-splicing fitness, log relative to wild type (ln ratio); higher = more splicing; Tetrahymena group I intron in knt gene, E. coli kanamycin selection, DiMSum; sequences stand for … in CUCUCU…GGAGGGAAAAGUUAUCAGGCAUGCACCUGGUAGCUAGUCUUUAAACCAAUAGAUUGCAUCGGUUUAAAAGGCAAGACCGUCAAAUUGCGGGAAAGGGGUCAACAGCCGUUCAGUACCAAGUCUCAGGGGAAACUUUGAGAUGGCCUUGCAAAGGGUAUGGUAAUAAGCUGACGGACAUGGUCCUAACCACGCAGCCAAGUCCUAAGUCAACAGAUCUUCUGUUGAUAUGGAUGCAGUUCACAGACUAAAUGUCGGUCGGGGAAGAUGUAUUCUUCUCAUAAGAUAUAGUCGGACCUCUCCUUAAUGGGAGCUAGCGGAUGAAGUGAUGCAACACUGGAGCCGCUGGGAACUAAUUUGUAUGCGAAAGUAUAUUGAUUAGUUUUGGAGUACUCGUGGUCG
- Settings: 37 °C
Could you please report measured self-splicing fitness (ln) for the items listed next?
Quick one: just the number, no unit, thanks!

Item UGCUAGCAAUAUUACGAUUG has what recorded self-splicing fitness (ln)?
-1.51

Item UUCCAGCAAUAUUACGUUGU has what recorded self-splicing fitness (ln)?
-2.74

Item CACUAGCAAUAUUACGGCGA has what recorded self-splicing fitness (ln)?
-1.61

Item GCACAGCAAUAUUACGUAUG has what recorded self-splicing fitness (ln)?
-1.52

Item AUCCAGCAAUAUUACGUCAA has what recorded self-splicing fitness (ln)?
-1.54

Item GCUAAGCAAUAUUACGUGGG has what recorded self-splicing fitness (ln)?
-1.61

Item CAGUAGCAAUAUUACGUCCC has what recorded self-splicing fitness (ln)?
-1.76

Item AAGCAGCAAUAUUACGUCGC has what recorded self-splicing fitness (ln)?
-2.51

Item ACAGAGCAAUAUUACGCUCU has what recorded self-splicing fitness (ln)?
-2.41

Item CGCUAGCAAUAUUACGAGCC has what recorded self-splicing fitness (ln)?
-0.554

Item GUUCAGCAAUAUUACGCUCA has what recorded self-splicing fitness (ln)?
-0.298

Item AUUGAGCAAUAUUACGCACU has what recorded self-splicing fitness (ln)?
-0.756

Item UUUGAGCAAUAUUACGCCAA has what recorded self-splicing fitness (ln)?
-1.56

Item GAAGAGCAAUAUUACGCUUA has what recorded self-splicing fitness (ln)?
-1.3

Item CCACAGCAAUAUUACGUACA has what recorded self-splicing fitness (ln)?
-2.96

Item CAGAAGCAAUAUUACGAGUG has what recorded self-splicing fitness (ln)?
-0.988

Item GAACAGCAAUAUUACGGAUG has what recorded self-splicing fitness (ln)?
-2.29

Item UACUAGCAAUAUUACGGAAG has what recorded self-splicing fitness (ln)?
-2.91

Item AGGGAGCAAUAUUACGCGAG has what recorded self-splicing fitness (ln)?
-2.47

Item AAAGAGCAAUAUUACGAUGC has what recorded self-splicing fitness (ln)?
-1.96

Item GAGAAGCAAUAUUACGGGCC has what recorded self-splicing fitness (ln)?
-2.56

Item AAACAGCAAUAUUACGGCGU has what recorded self-splicing fitness (ln)?
-0.336

Item UCGCAGCAAUAUUACGUAAC has what recorded self-splicing fitness (ln)?
-1.73

Item UCGUAGCAAUAUUACGGUGC has what recorded self-splicing fitness (ln)?
-3.15

Item GAUCAGCAAUAUUACGAGCG has what recorded self-splicing fitness (ln)?
-0.0351

Item CCAGAGCAAUAUUACGAGGU has what recorded self-splicing fitness (ln)?
-2.77

Item CUGGAGCAAUAUUACGAAGG has what recorded self-splicing fitness (ln)?
-1.97

Item UACAAGCAAUAUUACGCUAU has what recorded self-splicing fitness (ln)?
-1.83

Item UUCGAGCAAUAUUACGAAUG has what recorded self-splicing fitness (ln)?
-2.26

Item CUGCAGCAAUAUUACGAUCG has what recorded self-splicing fitness (ln)?
0.558

Item GGAAAGCAAUAUUACGCCAG has what recorded self-splicing fitness (ln)?
-0.912

Item ACGCAGCAAUAUUACGAAAA has what recorded self-splicing fitness (ln)?
-2.7

Item UAAAAGCAAUAUUACGCCUA has what recorded self-splicing fitness (ln)?
-0.367

Item CAUGAGCAAUAUUACGAAAU has what recorded self-splicing fitness (ln)?
-3.25

Where do the numbers come from? From the supplement of paper PMC7877785.
